Ratio/Fc-H overview
molecular target: T1, FcRn-p3 fusion protein (human, UniProt P55899 24-297; P61769 21-119); assay: phage ELISA pH6
T1 construct: baculovirus expressed; coated on ELISA wells; not shown: amino terminal part of bacteriophage p3 protein and CVDE protein
T1 sequence (P55899 24-297, chain 1 of 2): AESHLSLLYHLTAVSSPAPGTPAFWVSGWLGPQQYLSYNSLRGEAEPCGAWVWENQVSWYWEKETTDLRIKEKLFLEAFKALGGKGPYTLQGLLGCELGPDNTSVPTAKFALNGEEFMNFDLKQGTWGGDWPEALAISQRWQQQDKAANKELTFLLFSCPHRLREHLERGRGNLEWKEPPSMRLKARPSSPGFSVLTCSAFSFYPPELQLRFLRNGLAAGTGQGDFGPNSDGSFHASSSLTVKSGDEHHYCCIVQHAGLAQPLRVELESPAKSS
T1 sequence (P61769 21-119, chain 2 of 2): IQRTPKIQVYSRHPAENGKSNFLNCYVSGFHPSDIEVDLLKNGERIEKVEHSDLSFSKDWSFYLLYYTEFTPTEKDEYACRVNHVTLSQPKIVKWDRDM

[
  {
    "BINDER": "C5A_39 (other, EU numbering) CPPCPAPELLGGPSVFLFPPKPKDTLMISRTPEVTCVVVDVSHEDPEVKFNWYVDGVEVHNAKTEPREEQYNSTYRVVSVLTVLHQDWLDGKEYKCKVSNKALPAPIEKTISKAKGRPREPQVYTLPPSRDELTKNQVSLTCLVKGFYPSDIAVEWVSNGQPENNYKTTPPVLDSDGSFFLYSKLTVDKSRWQQGNVFSCSVMHEALHYHYTQKSLSLSPGK",
    "Ratio/Fc-H": "5 fold"
  },
  {
    "BINDER": "C8A_41 (other, EU numbering) CPPCPAPELLGGPSVFLFPPKPKDTLMISRTPEVTCVVVDVSHEDPEVKFNWYVDGVEVHNAKTKPREEQYNSTYRVVSVLTVLHQDWLDGKEYKCKVSNKALPAPIEKTISKAKGQPREPQVYTLPPSRDELTKNQVSLTCLVKGFYPSDIAVEWVSNGQPENNYKTTPPVLDSDGSFFLYSKLTVDKSRWQQGNVFSCSVMHEALPYHYTQKSLSLSPGK",
    "Ratio/Fc-H": "2.7 fold"
  },
  {
    "BINDER": "T7A_18 (other, EU numbering) CPPCPAPELLGGPSVFLFPPKPKDTLMISRTPEVTCVVEDVSHEDPEVKFNWYVDGVEVHNAKTKPREEQYNSTYRVVSVLTVLHQDWLNGKEYKCKVSNKALPAPIEKTISKAKGQPREPQVYTLPPSRDELTKNQVSLTCLVKGFYPSDIVVEWESNGRPENNYKTTPPVLDSDGSFFLYSKLTVDKSRWQQGNVFSCSVMHEALHSHYTQKSLSLSPGK",
    "Ratio/Fc-H": "2.8 fold"
  }
]
